# credit: patent US20200121803A1

Molecular target: T1, human CD98 on the cell surface (human)
T1 chain: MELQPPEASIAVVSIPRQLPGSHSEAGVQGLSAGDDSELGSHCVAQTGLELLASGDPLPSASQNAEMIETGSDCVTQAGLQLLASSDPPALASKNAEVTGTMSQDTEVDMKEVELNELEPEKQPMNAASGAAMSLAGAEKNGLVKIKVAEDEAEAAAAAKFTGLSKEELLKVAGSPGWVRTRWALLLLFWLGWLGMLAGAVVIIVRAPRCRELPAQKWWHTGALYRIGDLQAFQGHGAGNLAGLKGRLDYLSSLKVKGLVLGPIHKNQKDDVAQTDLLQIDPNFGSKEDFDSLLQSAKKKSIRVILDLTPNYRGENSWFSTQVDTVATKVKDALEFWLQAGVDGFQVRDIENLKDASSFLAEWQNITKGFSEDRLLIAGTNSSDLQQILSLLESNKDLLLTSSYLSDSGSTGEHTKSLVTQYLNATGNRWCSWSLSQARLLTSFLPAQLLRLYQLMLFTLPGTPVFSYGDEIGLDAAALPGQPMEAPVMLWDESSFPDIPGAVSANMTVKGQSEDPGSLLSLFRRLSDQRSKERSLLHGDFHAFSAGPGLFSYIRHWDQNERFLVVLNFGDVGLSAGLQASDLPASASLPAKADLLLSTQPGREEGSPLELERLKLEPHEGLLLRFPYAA
Test: cell-based or functional assay
Readout Kind: ADC potency, IC50 (nM), MOLT4 (leukemia) growth inhibition
Please state the figure in nM; there is no need to write the unit.

Solved entries (count: 4):
ChAb12-CZ (other, synthon CZ on reduced interchain Cys of the constant regions (sites not numbered)) VH: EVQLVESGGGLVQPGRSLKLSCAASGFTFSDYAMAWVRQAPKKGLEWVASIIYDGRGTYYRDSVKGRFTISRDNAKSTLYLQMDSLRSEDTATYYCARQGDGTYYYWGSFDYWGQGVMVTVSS VL: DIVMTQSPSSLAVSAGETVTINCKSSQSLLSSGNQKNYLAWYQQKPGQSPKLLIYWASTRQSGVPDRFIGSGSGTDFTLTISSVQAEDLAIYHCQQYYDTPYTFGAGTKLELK :: 0.034
ChAb3-CZ (other, synthon CZ on reduced interchain Cys of the constant regions (sites not numbered)) VH: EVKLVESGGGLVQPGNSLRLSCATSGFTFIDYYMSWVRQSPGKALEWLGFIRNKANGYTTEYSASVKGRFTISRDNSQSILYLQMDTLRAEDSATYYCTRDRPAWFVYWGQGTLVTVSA VL: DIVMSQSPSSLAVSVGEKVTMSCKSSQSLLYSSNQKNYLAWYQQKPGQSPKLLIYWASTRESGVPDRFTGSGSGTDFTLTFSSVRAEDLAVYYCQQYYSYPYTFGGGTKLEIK :: 0.026
ChAb5-CZ (other, synthon CZ on reduced interchain Cys of the constant regions (sites not numbered)) VH: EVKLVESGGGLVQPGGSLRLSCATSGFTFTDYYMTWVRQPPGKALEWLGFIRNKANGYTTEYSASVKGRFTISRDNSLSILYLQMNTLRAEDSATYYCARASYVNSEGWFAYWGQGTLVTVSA VL: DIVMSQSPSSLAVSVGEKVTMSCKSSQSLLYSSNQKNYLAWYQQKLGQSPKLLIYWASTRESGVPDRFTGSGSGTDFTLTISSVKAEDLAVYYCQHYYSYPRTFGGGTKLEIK :: 0.029
ChAb13-CZ (other, synthon CZ on reduced interchain Cys of the constant regions (sites not numbered)) VH: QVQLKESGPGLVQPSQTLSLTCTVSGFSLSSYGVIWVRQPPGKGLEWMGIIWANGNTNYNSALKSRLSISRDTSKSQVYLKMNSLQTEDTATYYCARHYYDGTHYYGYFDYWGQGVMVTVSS VL: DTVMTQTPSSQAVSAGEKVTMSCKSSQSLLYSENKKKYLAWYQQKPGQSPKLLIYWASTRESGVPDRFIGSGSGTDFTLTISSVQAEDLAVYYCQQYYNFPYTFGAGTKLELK :: 0.052

Consider now this further binder.
Look at this binder and give its reported ADC potency, IC50 (nM), MOLT4 (leukemia) growth inhibition. ChAb1-CZ (other, synthon CZ on reduced interchain Cys of the constant regions (sites not numbered)) VH: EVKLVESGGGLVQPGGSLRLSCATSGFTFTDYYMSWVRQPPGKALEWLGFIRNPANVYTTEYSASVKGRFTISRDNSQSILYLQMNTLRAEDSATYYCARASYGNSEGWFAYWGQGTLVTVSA VL: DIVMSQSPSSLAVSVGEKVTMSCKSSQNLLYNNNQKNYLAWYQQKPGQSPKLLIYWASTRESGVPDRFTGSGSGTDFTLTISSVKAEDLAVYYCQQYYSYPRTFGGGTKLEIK
0.071
